Assay: viability loss with induced miR-34 in A549 – imaging, A549 dox-inducible miR-34, nuclei and caspase counts, primary screen (AID 1347080)
Conditions: A549 miR-34 inducible, Hoechst nuclei count, 48 h; active compounds read low; cell number ratio, induced over uninduced
For each entry below, report its fold change value.
Output spec: single numeric token, no unit.

**Query** What value of fold change has been recorded for this entry: COC(=O)C1=C(C)NC(C)=C(C(=O)OCCCN2CCC(c3ccccc3)(c3ccccc3)CC2)[C@H]1c1cccc([N+](=O)[O-])c1
**Result** 0.98

**Query** What value of fold change has been recorded for this entry: CCCCC/C=C\C/C=C\C/C=C\C/C=C\CCCC(=O)Oc1ccc2ccc(=O)oc2c1
**Result** 0.939

**Query** What value of fold change has been recorded for this entry: CC1(C)CCC(C)(C)c2cc(C3(c4ccc(C(=O)O)cc4)OCCO3)ccc21
**Result** 0.895

**Query** What value of fold change has been recorded for this entry: Cc1nn(-c2ccccc2)c(C)c1/C=N/N1CCN(Cc2ccccc2)CC1
**Result** 1.03

**Query** What value of fold change has been recorded for this entry: Cc1c(NC(=O)N2CCOCC2)ccc2c1c1ccccc1n2C(C)C
**Result** 0.891

**Query** What value of fold change has been recorded for this entry: C[C@@H](O)CCC[C@@H](O)/C=C/[C@@H]1[C@@H](CCCCCCC(=O)O)[C@@H](O)C[C@H]1O
**Result** 0.879

**Query** What value of fold change has been recorded for this entry: O=C(NCc1ccncc1)C12CC3CC(C1)CC(c1ccc(Cl)cc1)(C3)C2
**Result** 0.915

**Query** What value of fold change has been recorded for this entry: Nc1nc2c(ccc3ccccc32)s1
**Result** 0.908

**Query** What value of fold change has been recorded for this entry: CCN1/C(=C/C(C)=O)Sc2ccc(OC)cc21
**Result** 1.04

**Query** What value of fold change has been recorded for this entry: O=C(O)CCC/C=C\C[C@H]1C(=O)C=C[C@@H]1CC[C@@H](O)CCc1ccccc1
**Result** 0.93

----------
For each entry below, report its viability value.
Assay: drug combination growth inhibition, ovarian cancer – cell-based, oncology-focused library, rucaparib conditional, profiling panel (AID 1508598)
Conditions: patient-derived ovarian cancer cells, CellTiter-Glo viability, 144 h; at 5 µM; OCI-P5x cells; without rucaparib; active compounds read low
// return numeric value only (unit: %, not printed)

**Query** What value of viability has been recorded for this entry: C=CC(=O)Nc1cccc(Nc2nc(Nc3ccc(NC4CN(CCF)C4)cc3OC)ncc2C(F)(F)F)c1
**Result** 20

**Query** What value of viability has been recorded for this entry: CN[C@H]1CN(c2ccc3c(=O)c(C(=O)O)cn(-c4nccs4)c3n2)C[C@@H]1OC
**Result** 6.69

**Query** What value of viability has been recorded for this entry: COc1c(C)cnc(Cn2cnc3c(Cl)nc(N)nc32)c1C
**Result** 6.09

**Query** What value of viability has been recorded for this entry: Nc1nccc(Oc2ccc(NC(=O)c3c[nH]cc(-c4ccc(F)cc4)c3=O)cc2F)c1Cl
**Result** 89.1

**Query** What value of viability has been recorded for this entry: CN1CCCN(C(=O)c2cccc(-c3ccc(/C=C4/C(=O)Nc5ccc(Cl)cc54)o3)c2)CC1
**Result** 1.82

**Query** What value of viability has been recorded for this entry: CN(C)C/C=C/C(=O)Nc1cc2c(Nc3ccc(F)c(Cl)c3)ncnc2cc1O[C@H]1CCOC1
**Result** 6.79

**Query** What value of viability has been recorded for this entry: CN(C)CC[C@H](CSc1ccccc1)Nc1ccc(S(=O)(=O)NC(=O)c2ccc(N3CCN(Cc4ccccc4-c4ccc(Cl)cc4)CC3)cc2)cc1[N+](=O)[O-]
**Result** 75.3
